Biological target: T1, human LAG-3 on cells (HEK293-hLAG-3 stable cell line) (human, UniProt P18627 23-525)
T1 sequence: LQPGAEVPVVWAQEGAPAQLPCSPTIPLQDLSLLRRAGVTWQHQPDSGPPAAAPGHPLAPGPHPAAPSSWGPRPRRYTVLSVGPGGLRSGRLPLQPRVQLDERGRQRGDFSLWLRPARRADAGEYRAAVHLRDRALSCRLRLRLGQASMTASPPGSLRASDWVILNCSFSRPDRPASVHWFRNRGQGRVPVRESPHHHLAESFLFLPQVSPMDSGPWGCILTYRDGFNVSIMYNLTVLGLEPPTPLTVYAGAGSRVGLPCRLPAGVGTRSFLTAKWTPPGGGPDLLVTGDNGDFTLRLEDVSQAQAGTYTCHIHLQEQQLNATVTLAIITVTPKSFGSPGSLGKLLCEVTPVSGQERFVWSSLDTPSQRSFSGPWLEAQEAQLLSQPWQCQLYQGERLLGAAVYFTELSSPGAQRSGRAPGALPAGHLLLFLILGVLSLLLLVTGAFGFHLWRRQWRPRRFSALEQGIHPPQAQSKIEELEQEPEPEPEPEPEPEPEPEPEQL
Assay: cell-based or functional assay
readout: IL-2 production, antigen-specific T lymphocyte stimulation test, 0.08 ug/ml, N = 1 (pg/mL)
The response must be a number in pg/mL with no trailing unit.

Some solved cases for reference:
409B11E12 mouse-human chimeric antibody (antibody, V domains shown, also called mAb104-409B11E12) VH: QVQLQQSGAELVRPGASVTLSCKASGYTFTDYEMHWVKQTTVHGLEWIGATDPETSYSAYNQKFKGKAILTADKSSSTAYMELRSLTSEDSAVYYCIATGWNDWGQGTSLTVSS VL: DLKMTQSPSSMYASLGERVTITCKASQDINSYLSWFQQKPGKSPKTLIYRANRLLDGVPSRFSGSGSGQDYSLTISSLEYEDMGIYYCLQYDEFPYTFGGGTKLEIK
525
405B8H3 mouse-human chimeric antibody (antibody, V domains shown, also called mAb103-405B8H3) VH: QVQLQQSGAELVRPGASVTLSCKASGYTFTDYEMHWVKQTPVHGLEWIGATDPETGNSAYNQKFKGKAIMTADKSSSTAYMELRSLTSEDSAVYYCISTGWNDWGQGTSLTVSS VL: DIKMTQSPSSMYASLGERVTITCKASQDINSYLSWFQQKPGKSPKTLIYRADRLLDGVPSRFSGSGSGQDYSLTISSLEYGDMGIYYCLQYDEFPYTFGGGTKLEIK
666
556F6B8 mouse-human chimeric antibody (antibody, V domains shown, also called mAb123-556F6B8; 556F8B8) VH: RVQLKQSGPGLVQPSQSLSITCTVSGFSLIKYGVHWVRQSPGEGLEWLGVIWRGGITDYNAAFMSRLSITKDNSKSQVFFKMNSLQADDTAIYYCAKWDGPLAMDYWGQGTSVTVSS VL: DIVMTQSHKFLSTSVGDRVSITCKASQDVGTTVAWYQQKPGQSPKLLIYWASTRHTGVPDRFTGSGSGTDFTLTISNVQSEDLADYFCQQYSSYPYTFGGGTKLEIK
499

Returns the measured IL-2 production, antigen-specific T lymphocyte stimulation test, 0.08 ug/ml, N = 1 for the input binder. Input: 105F1E10 mouse-human chimeric antibody (antibody, V domains shown, also called mAb009-105F1E10) VH: EVQLQQSGPELVKPGASVKMSCRASGYTFTDFKMHWMKQSHGKSLEWIGYIAPNNGGTAYNQKFRGKATLTVNESSNTAYMELRSLTSEDSAVYYCVDWDDVDYWGQGTTLTVSS VL: DIKMTQSPSSMYASLGERVTITCKASQDINSYLSWFQQKSGKSPKTLIYRANRLVDGVPSRFSGSGSGQDYSLTISSLEYEDMGIYYCLQYVEFPLTFGAGTKLELK
437

Returns the measured IL-2 production, antigen-specific T lymphocyte stimulation test, 0.08 ug/ml, N = 1 for the input binder. Input: 409D4E10 mouse-human chimeric antibody (antibody, V domains shown, also called mAb112-409D4E10) VH: QVQLQQSGAELVRPGASVTLSCKASGNTFTDYEMHWVKQTPVHGLEWIGATDPETDNTAYNQKFKGKAILTTDKSSSTAYMELRSLTSEDSAVYYCITSGWNDWGQGTSLTVSS VL: DIKMTQSPSSMYASLGERVTITCKASQDINSYLSWFQQKPGKSPKTLIYRANRLLDGVPSRFSGSGSGQDYSLTISSLEYEDMGIYYCLQYNEFPYTFGGGTKLEIK
498

Ref: patent US20210155689A1
